ASSAY SYSTEM: UniProtKB O60674
MEASUREMENT DESCRIPTION: Inhibition of JAK2 (unknown origin)
Each entry below carries its reported IC50.

{"COMPOUND STRUCTURE": "CC1(C)CN(C(=O)c2ccc(-c3cccc4nc(NC(=O)C5CC5)nn34)cc2)C1", "UNIT STRING": "nM", "IC50": 108}
{"COMPOUND STRUCTURE": "N#CCC1(n2cc(-c3ncnc4[nH]ccc34)cn2)CN(C2CCN(C(=O)c3ccnc(C(F)(F)F)c3F)CC2)C1", "UNIT STRING": "nM", "IC50": 63}

====

ASSAY SYSTEM: Signal transducer and activator of transcription 3 (Homo sapiens, UniProt P40763)
Sequence (P40763 whole entry): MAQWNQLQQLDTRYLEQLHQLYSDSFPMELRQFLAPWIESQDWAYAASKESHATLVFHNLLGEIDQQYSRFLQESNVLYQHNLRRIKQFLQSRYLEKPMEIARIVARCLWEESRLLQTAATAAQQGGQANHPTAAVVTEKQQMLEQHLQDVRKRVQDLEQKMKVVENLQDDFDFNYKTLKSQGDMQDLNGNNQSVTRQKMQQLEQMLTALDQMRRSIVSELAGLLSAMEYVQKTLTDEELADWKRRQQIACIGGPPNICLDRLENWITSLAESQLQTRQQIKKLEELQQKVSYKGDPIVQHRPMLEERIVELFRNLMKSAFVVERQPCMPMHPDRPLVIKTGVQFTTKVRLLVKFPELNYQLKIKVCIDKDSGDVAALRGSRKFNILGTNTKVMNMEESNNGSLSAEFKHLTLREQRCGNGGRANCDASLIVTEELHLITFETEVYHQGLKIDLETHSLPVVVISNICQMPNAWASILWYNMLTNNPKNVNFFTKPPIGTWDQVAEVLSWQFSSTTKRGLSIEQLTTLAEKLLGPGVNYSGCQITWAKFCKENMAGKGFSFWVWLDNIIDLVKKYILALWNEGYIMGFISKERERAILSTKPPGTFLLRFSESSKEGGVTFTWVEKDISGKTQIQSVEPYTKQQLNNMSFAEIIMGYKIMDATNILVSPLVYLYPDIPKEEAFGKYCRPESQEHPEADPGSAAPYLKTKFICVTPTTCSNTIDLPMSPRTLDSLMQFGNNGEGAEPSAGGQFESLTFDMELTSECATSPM
MEASUREMENT DESCRIPTION: Inhibition of IL6-stimulated STAT3 signalling in human CD4+ T cells
pIC50: −log10 of the molar value.

{"COMPOUND STRUCTURE": "CN(C)C(=O)/C(C#N)=C/c1ccc(-c2nc3cnc4[nH]ccc4c3n2C2CCCCC2)o1", "pIC50": 6.00}

====

ASSAY SYSTEM: UniProt:P23458
Sequence (P23458 whole entry): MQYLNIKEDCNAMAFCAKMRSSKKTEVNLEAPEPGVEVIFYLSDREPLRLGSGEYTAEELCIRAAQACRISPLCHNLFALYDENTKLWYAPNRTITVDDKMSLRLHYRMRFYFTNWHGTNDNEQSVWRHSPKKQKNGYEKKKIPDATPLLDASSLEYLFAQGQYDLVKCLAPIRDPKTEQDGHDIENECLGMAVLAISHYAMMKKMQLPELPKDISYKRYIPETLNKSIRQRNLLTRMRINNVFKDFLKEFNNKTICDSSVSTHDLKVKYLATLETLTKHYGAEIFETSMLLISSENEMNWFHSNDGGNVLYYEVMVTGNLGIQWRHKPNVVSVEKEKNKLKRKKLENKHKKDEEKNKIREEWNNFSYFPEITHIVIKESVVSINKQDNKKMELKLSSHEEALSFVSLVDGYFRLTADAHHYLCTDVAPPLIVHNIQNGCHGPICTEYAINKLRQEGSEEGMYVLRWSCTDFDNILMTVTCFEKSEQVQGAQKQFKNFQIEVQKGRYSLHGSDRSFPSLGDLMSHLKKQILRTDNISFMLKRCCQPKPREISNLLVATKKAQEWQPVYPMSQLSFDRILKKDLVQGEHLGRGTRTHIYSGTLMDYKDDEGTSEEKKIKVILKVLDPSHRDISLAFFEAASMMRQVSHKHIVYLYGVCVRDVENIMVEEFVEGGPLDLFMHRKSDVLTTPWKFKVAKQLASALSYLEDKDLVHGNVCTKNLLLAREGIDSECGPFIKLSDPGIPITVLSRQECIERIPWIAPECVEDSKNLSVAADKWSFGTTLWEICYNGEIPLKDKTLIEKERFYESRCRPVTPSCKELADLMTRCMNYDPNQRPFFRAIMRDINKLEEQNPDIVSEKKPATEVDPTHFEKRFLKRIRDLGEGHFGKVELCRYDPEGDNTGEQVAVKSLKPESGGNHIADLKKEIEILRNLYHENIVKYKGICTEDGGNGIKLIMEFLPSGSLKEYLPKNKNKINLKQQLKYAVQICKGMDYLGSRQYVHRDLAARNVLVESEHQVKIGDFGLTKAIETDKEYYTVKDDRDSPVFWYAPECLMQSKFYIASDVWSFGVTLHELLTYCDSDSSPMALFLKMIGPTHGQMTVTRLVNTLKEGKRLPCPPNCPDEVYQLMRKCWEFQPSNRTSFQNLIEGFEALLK
MEASUREMENT DESCRIPTION: Competitive inhibition of JAK1 (unknown origin) in the presence of ATP

{"COMPOUND STRUCTURE": "Cc1cc(Nc2nc(N[C@@H](C)c3ncc(F)cn3)ncc2Cl)n[nH]1", "IC50, nM": 1.3}

====

ASSAY SYSTEM: Non-receptor tyrosine-protein kinase TYK2 (Homo sapiens, UniProt P29597)
Sequence (P29597 whole entry, the tested form may be a part): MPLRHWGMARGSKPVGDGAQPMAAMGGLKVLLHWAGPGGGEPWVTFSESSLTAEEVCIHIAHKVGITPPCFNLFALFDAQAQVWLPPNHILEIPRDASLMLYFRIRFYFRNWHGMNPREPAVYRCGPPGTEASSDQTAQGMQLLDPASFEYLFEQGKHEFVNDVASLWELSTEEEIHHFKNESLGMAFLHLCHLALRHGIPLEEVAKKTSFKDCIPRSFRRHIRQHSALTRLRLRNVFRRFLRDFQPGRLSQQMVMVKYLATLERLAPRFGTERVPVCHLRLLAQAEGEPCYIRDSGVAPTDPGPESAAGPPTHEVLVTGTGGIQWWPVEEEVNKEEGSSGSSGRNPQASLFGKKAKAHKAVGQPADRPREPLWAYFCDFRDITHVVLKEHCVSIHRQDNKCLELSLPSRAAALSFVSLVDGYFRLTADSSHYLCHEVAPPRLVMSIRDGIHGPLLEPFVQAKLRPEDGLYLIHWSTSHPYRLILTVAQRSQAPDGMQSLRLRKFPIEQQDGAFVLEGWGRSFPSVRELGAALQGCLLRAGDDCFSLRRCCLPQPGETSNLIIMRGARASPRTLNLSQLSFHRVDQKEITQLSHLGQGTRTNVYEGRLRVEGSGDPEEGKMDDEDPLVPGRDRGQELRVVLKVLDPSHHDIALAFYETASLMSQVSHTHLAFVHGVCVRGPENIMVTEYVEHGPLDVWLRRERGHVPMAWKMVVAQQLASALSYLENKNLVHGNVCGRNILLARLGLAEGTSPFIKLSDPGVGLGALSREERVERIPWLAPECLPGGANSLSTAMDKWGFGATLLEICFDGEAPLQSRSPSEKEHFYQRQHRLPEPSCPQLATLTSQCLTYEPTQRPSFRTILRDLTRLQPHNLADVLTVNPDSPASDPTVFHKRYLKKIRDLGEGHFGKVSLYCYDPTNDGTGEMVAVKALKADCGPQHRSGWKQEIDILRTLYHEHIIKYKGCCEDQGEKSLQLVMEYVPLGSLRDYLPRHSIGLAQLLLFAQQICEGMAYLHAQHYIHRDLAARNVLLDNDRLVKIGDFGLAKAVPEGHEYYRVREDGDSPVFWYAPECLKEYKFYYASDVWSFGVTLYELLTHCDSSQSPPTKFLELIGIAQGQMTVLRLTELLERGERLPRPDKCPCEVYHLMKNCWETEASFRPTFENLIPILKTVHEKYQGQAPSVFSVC
MEASUREMENT DESCRIPTION: Inhibition of recombinant human TYK2 (870 to 1187 residues)
pIC50: −log10 of the molar value.

{"COMPOUND STRUCTURE": "CNS(=O)(=O)C[C@H]1CC[C@H](N(C)c2ncnc3[nH]ccc23)CC1", "pIC50": 7.08}

====

MEASUREMENT DESCRIPTION: Inhibition of T cell proliferation in Balb/c mouse spleenocytes by MLR assay
Format: toxicity, cell-based
MEASUREMENT CONTEXT: Splenocyte

{"COMPOUND": "CC[C@@](C)(Nc1ccnc(-c2c[nH]c3ncccc23)n1)C(=O)NCC(F)(F)F [DECERNOTINIB]", "IC50 / nM": 50}

====

ASSAY SYSTEM: Tyrosine-protein kinase JAK2 (Homo sapiens, UniProt O60674)
Sequence (O60674 whole entry, the tested form may be a part): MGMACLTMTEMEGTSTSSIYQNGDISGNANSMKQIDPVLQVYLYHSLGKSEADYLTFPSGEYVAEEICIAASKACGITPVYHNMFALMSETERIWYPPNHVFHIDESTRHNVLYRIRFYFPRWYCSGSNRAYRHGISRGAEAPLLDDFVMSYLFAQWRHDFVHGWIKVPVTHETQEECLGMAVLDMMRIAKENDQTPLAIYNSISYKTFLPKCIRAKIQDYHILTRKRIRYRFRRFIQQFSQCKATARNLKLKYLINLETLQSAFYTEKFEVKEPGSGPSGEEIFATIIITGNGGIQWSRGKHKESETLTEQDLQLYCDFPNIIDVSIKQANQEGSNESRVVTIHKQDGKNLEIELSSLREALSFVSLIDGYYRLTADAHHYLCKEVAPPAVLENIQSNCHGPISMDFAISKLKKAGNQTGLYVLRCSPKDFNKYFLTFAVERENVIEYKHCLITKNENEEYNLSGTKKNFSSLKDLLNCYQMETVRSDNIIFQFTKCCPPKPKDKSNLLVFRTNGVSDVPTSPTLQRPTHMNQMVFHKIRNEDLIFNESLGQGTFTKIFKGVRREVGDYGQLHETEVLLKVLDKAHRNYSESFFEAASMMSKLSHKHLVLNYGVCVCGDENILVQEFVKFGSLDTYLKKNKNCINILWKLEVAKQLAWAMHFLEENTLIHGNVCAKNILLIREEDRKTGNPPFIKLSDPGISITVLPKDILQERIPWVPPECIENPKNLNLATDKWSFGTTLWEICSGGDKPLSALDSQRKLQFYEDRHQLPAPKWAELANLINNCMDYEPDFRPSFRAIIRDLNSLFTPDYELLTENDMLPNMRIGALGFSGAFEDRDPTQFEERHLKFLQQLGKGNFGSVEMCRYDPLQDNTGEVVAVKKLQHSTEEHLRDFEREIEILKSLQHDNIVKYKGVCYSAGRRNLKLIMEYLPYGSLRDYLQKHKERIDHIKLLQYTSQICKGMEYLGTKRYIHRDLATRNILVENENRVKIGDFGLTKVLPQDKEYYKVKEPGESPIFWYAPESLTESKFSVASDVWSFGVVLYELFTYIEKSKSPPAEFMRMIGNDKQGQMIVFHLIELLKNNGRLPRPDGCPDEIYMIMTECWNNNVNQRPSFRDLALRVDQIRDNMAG
MEASUREMENT DESCRIPTION: Inhibition of human JAK2 kinase domain incubated for 1 hrs in the presence of ATP by spectrophotometric analysis

{"COMPOUND": "C[C@H](Nc1cc(-c2cnn(C)c2)cc(Nc2cnccn2)n1)c1ccc(F)cc1 [NS-018]", "ASSAY SYSTEM": "Tyrosine-protein kinase JAK2 (Homo sapiens, UniProt O60674)", "IC50": "0.72 nM"}

====

Each entry below carries its reported IC50.
ASSAY SYSTEM: Tyrosine-protein kinase JAK3 (Homo sapiens)
MEASUREMENT DESCRIPTION: Inhibition of JAK3 (unknown origin)

{"COMPOUND STRUCTURE": "N#CCC1(n2cc(-c3ncnc4[nH]ccc34)cn2)CN(C2CCN(C(=O)c3ccnc(C(F)(F)F)c3F)CC2)C1", "IC50": "2000 nM"}
{"COMPOUND STRUCTURE": "CC1(C)CN(C(=O)c2ccc(-c3cccc4nc(NC(=O)C5CC5)nn34)cc2)C1", "IC50": "539 nM"}
